Reference for the values: patent US20250043022A1

- Target entity: T1, human PSMA antigen (R&D SYSTEM, 4234-ZN-010) (human, UniProt Q04609 44-750)
- T1 construct: bought antigen
- T1 sequence (Q04609 44-750 limits assumed): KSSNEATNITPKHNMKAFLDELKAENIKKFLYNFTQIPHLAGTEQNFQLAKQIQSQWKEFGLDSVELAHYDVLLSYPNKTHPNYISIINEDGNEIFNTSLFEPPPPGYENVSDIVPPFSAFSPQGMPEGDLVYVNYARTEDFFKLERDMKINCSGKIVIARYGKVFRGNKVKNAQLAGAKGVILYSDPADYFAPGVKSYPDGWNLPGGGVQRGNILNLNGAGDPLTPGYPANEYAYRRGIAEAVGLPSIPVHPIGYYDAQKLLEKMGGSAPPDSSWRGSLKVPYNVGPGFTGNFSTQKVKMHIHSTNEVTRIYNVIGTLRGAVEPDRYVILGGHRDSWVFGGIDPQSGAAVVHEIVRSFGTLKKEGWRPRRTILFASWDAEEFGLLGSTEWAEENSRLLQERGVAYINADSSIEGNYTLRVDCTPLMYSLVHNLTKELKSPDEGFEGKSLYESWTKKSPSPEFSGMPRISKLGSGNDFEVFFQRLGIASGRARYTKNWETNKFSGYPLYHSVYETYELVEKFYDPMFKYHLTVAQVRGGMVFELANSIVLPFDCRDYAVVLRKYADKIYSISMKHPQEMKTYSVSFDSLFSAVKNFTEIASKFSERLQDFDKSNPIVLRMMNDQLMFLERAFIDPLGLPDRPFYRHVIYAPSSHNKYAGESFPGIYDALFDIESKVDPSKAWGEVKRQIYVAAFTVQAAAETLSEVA
- Protocol details: ELISA, plate-bound PSMA antigen
Property: Top (maximum absorbance)
Lab book: enter the figure in absorbance, no units written.

Please give measured Top (maximum absorbance) of the following entry: hu41H2L2 (antibody, human IgG1, kappa, V domains shown) VH: EVQLVQSGAEVKKPGASVKVSCKASGYTFTSYGISWVRQAPGQGLEWMGEIFPRRGNTYYNEKFRGRVTLTADKSTSTAYMELRSLRSDDTAVYYCARVFDGYYNYAMDYWGQGTTVTVSS VL: DIQMTQSPSSLSASVGDRVTITCRASQDIGSSLNWLQQKPGKAIKRLIYATSSLDSGVPSRFSGSRSGTDYTLTISSLQPEDFATYYCLQYASSPYTFGGGTKVEIKR
0.421

State its Top (maximum absorbance): hu31H1L1 (antibody, human IgG1, kappa, V domains shown) VH: EVQLVESGGGLVQPGGSLRLSCAASGFTFSDYYMAWVRQAPGKGLEWVASINYDGSSTYYLDSLKSRFTISRDNAKNSLYLQMNSLRAEDTAVYYCAGSDGYWAWFAYWGQGTLVTVSS VL: DIQMTQSPSSLSASVGDRVTITCRASGNIHNYLAWYQQKPGKAPKLLIYNAETLADGVPSRFSGSGSGTDFTLTISSLQPEDFATYYCQHFWSTPPTFGGGTKVEIKR
1.76

Return Top (maximum absorbance) for the following binder: hu43H3L2 (antibody, human IgG1, kappa, V domains shown) VH: EVQFVESGGGLVQPGGSLRLSCAASGFTFSNYWMNWLRQAPGKGLEWVAQVRLKSDNYATHYAESVKGRFTISREDAKNSAYLQMNSLRAEDTAVYYCSENYYGPAGPFDFWGQGTTVTVSS VL: DIQMTQSPSSLSASVGDRVTITCKASQNVHTSVAWYQQKPGKSPKLLIYSASNRYSGVPSRFSGSGSGTDFTLTISSLQPEDVATYYCQQYSSYPLTFGQGTKLEIKR
0.245

Return Top (maximum absorbance) for the following binder: hu46H2L2 (antibody, human IgG1, kappa, V domains shown) VH: EVQLVESGGGLVKPGGSLRLSCAASGFTFSNYGMSWVRQAPGKGLEWVSTIGSGGGYTYYSDSVKGRFTISRDNAKNSLYLQMNSLRAEDTAVYYCVRHPQIGYWGQGTLVTVSS VL: DIQMTQSPSSLSASVGDRVTITCKASQSVGTAVAWYQQKPGKAPKLLIYSASSRYTGVPSRFSGSGSGTDFTLTISSLQPEDFADYFCHQYSSYPLTFGGGTKVEIKR
1.67

Give the reported value of Top (maximum absorbance) for this record: Chi13 (antibody, human IgG1, kappa, V domains shown, chimeric antibody, hIgG1/kappa) VH: QVQLKESGPGLVAPSQSLSITCTVSGFSLTNYAISWVRQPPGKGLEWLGVIWTGGGTHYNSALKSRLSISKDNSKSQVFLKMNSLQTDDTARYYCARKGNYYGSSLYYYAMNYWGQGTSVTVSS VL: DIQMTQTTSSLSASLGDRVTISCRASQDISNYLNWYQQKPDGTVKLLIYYTSRLQSGVPSRFSGSGSGTDYSLSISNLEQEDIATYFCQQGDTLPYTFGGGTKLEIRT
2.11
